target: BTK (Homo sapiens (Human)); test: In Vitro BTK Kinase Assay: Btk-PolyGAT-LS Assay; assay type: biochemical; settings: BTK enzyme 0.25 nM, ATP 10 μM, polyGAT 100 nM, 30 minutes incubation, TRF readout; read-out: IC50
Sequence (Q06187 whole entry): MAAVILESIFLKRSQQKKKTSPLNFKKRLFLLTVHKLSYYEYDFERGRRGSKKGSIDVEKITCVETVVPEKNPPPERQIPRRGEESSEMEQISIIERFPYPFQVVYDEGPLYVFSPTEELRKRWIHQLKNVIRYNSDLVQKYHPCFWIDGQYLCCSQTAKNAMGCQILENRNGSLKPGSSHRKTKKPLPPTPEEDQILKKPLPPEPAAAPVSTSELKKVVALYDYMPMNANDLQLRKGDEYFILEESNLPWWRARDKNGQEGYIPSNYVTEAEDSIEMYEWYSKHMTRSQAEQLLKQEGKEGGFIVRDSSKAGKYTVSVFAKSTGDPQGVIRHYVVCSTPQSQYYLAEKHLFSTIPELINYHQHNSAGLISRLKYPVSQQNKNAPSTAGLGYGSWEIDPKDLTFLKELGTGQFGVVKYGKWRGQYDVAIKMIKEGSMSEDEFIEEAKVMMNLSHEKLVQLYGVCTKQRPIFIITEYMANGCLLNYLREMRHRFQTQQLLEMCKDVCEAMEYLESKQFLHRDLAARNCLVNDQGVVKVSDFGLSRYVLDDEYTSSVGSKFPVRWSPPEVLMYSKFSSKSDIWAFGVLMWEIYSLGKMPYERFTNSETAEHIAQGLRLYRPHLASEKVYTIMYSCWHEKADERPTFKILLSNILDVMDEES
READOUT NAME: IC50

Completed entries (count: 2):
COMPOUND: C=CC(=O)N(C)[C@@H]1COC[C@H](Oc2nc(-c3cnn(C)c3)cn3nccc23)C1 (racemic)
SYSTEM UNDER TEST: BTK (Homo sapiens (Human))
IC50: < 1 nM
--
COMPOUND: C=CC(=O)N1CCC[C@H](Oc2nc(-c3cnn(C)c3)cn3ncc(Cl)c23)[C@H](F)C1 (racemic)
SYSTEM UNDER TEST: BTK (Homo sapiens (Human))
IC50: 10 to 1000 nM

Briefly, IC50 measured for C=CC(=O)N1[C@H]2CC[C@@H]1[C@H](Oc1nc(-c3cnn(C)c3)cn3nccc13)C2 : < 1 nM

Measured IC50 of C=CC(=O)N(C)[C@H]1C[C@@H](Oc2nc(-c3cnn(C)c3)cn3ncc(F)c23)C1 : < 1 nM

Measured IC50 of C=CC(=O)N1CCC[C@H](Oc2nc(-c3ccc(=O)n(C)c3)cn3nccc23)CC1 (single isomer, unassigned) [Example 71 E1] : 1 to 10 nM
